system: NCI-H460; assay: NCI tumour cell line growth inhibition, 48 h
Calls of active or inactive are those of the source. No stated cut-off is given here; in the data, active = GI50 up to about 1.1 µM and inactive = higher. Where a SMILES comes first, the peptide text is derived from it. [ ]: non-standard residue; d: D form. The star is where a group is joined. Phe(4-NO2) = N[CH](Cc1ccc([N+](=O)[O-])cc1)C(=O)O; Cbz = O=C(OCc1ccccc1)*
readoutName: GI50

>>> recordedmeasurement("CCOC(=O)c1sc(N)nc1N1CCCC1")
"> 100 µM (inactive)"
>>> recordedmeasurement("OCCN(CCO)c1cccc(N(CCO)CCO)n1")
"> 100 µM (inactive)"
>>> recordedmeasurement("CCOC(=O)c1c(C)[n+]([O-])c2cc(Cl)c(Cl)cc2[n+]1[O-]")
"16.3 µM (inactive)"
>>> recordedmeasurement("CCOC(=O)CCC(NC(=O)OCc1ccccc1)C(=O)NC(CCC(=O)OCC)C(=O)NC(Cc1ccc([N+](=O)[O-])cc1)C(=O)NC(CCC(=O)OCC)C(=O)NC(CCC(=O)OCC)C(=O)OCC (centres undefined) (Cbz-E(OEt)E(OEt)[Phe(4-NO2)]E(OEt)E(OEt)-OEt; configuration not given here)")
"> 100 µM (inactive)"
